# reported ED50; entries follow
species: Mus musculus; assay: Ability to antagonize the muscle relaxation effect in mice caused by a benzodiazepine full agonist, triazolam.; format: functional

>>> df
                                   compound  value_observed
0  CC1CN(C)CC(C)N1C(=O)N1Cc2c(C(=O)OC(C)(C)C)ncn2-c2ccc(F)cc21 (stereo not drawn)      > 30 mg/kg
1  C[C@@H]1CN(C(=O)N2Cc3c(C(=O)OC(C)(C)C)ncn3-c3cccc(Cl)c32)C[C@H](C)N1      > 30 mg/kg

Consider the record given below.
[in] Sample CC1CN(C(=O)N2Cc3c(C(=O)OC(C)(C)C)ncn3-c3ccc(Cl)cc32)C(C)CN1.O=C(O)CC(=O)O (stereo not drawn) — what was its ED50?
[out] > 30 mg/kg
